Recorded measurements of AC50, one per entry
Biological target: PKR WT (Homo sapiens, UniProt P30613)
Sequence (P30613 whole entry): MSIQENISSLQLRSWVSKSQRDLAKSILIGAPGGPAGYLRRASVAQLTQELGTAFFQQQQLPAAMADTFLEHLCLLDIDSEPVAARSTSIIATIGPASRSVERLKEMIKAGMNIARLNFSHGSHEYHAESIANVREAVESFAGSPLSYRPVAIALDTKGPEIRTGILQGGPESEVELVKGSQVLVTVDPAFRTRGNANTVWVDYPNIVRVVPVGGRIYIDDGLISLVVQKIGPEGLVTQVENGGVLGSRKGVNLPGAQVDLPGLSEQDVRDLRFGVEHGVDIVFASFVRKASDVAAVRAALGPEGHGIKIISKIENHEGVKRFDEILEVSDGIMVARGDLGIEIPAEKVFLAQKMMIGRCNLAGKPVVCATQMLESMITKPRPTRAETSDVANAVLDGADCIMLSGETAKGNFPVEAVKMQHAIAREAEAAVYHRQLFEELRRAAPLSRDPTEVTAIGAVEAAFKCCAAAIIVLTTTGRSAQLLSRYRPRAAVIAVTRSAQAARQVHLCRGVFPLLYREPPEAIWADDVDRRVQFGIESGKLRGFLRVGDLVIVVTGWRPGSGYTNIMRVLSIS
Experiment: PKR WT cell based AC50 assay
Settings: wild type PKR
observable: AC50

[[record]]
compound = "O=C(c1ccc(NS(=O)(=O)c2cc(F)cc3scnc23)cc1)N1CCC(O)(c2ccccc2Cl)CC1 [Compound 401]"
experimental_value = "0.101 to 1 µM"

[[record]]
compound = "O=C(c1ccc(NS(=O)(=O)c2cccc3nccnc23)cc1)N1CCC(O)(CCC=C(F)F)CC1 [Compound 399]"
experimental_value = "< 0.1 µM"

[[record]]
compound = "O=C(c1ccc(NS(=O)(=O)c2cccc3c(O)ncnc23)cc1)N1CCC(O)(/C=C/CC(F)(F)F)CC1 [Compound 424]"
experimental_value = "0.101 to 1 µM"

[[record]]
compound = "O=C(c1ccc(NS(=O)(=O)c2cccc3scnc23)cc1)N1CCC(O)(Cc2ccccc2C(F)(F)F)CC1 [Compound 412]"
experimental_value = "0.101 to 1 µM"

[[record]]
compound = "CC(C)CC1(O)CCN(C(=O)c2ccc(NS(=O)(=O)c3cccc4nccnc34)cc2OC(F)F)CC1 [Compound 213]"
experimental_value = "< 0.1 µM"

[[record]]
compound = "CNc1nc2c(S(=O)(=O)Nc3ccc(C(=O)N4CCC(O)(CC(C)C)CC4)cc3)cccc2s1 [Compound 408]"
experimental_value = "< 0.1 µM"

[[record]]
compound = "CC(C)CC1(O)CCN(C(=O)c2ccc(NS(=O)(=O)c3cccc4c(O)ncnc34)cc2)CC1 [Compound 388]"
experimental_value = "< 0.1 µM"


* * *

Molecular target: PKR WT (Homo sapiens, UniProt P30613)
Assay: PKR WT cell based AC50 assay
Conditions: wild type PKR
Parameter AC50: see the listing below.
observable: AC50

[[record]]
molecule = "Nc1nc2c(S(=O)(=O)Nc3ccc(C(=O)N4CCC(O)(c5ccccc5Cl)CC4)cc3)cccc2s1 [Compound 407]"
experimental_value = "< 100 nM"

[[record]]
molecule = "Cc1ccccc1C1(O)CCN(C(=O)c2ccc(NS(=O)(=O)c3cccc4cccnc34)cc2)CC1 [Compound 103]"
experimental_value = "< 100 nM"

[[record]]
molecule = "N#Cc1cc(NS(=O)(=O)c2cccc3cccnc23)ccc1C(=O)N1CCC(O)(c2ccccc2Cl)CC1 [Compound 209]"
experimental_value = "< 100 nM"

[[record]]
molecule = "Cc1nc(C(=O)N2CCC(O)(c3ccccc3Cl)CC2)ccc1NS(=O)(=O)c1cccc2cccnc12 [Compound 210]"
experimental_value = "101 to 1000 nM"

[[record]]
molecule = "CC(F)(F)CCC1(O)CCN(C(=O)c2ccc(NS(=O)(=O)c3cccc4nccnc34)cc2)CC1 [Compound 396]"
experimental_value = "< 100 nM"

[[record]]
molecule = "O=C(c1ccc(NS(=O)(=O)c2cccc3cccnc23)cc1)N1CCC(O)(c2ccccc2C(F)(F)F)CC1 [Compound 126]"
experimental_value = "< 100 nM"

[[record]]
molecule = "CC(C)CCC1(O)CCN(C(=O)c2ccc(NS(=O)(=O)c3cccc4scnc34)cc2)CC1 [Compound 392]"
experimental_value = "< 100 nM"

[[record]]
molecule = "CNc1nc2c(S(=O)(=O)Nc3ccc(C(=O)N4CCC(O)(CC(C)C)CC4)cc3)cc(Cl)cc2s1 [Compound 385]"
experimental_value = "< 100 nM"

[[record]]
molecule = "O=C(c1ccc(NS(=O)(=O)c2cccc3cccnc23)c(Cl)c1)N1CCC(O)(c2ccccc2Cl)CC1 [Compound 222]"
experimental_value = "< 100 nM"

[[record]]
molecule = "O=C(c1ccc(NS(=O)(=O)c2cccc3cccnc23)cc1)N1CCC(O)(c2ccccc2)CC1 [Compound 156]"
experimental_value = "< 100 nM"

[[record]]
molecule = "O=C(c1ccc(NS(=O)(=O)c2cc(F)cc3cccnc23)cc1)N1CCC(O)(c2ccccc2Cl)CC1 [Compound 223]"
experimental_value = "101 to 1000 nM"

[[record]]
molecule = "O=C(c1ccc(NS(=O)(=O)c2cccc3cccnc23)cc1)N1CCC(O)(c2cccnc2F)CC1 [Compound 217]"
experimental_value = "101 to 1000 nM"

[[record]]
molecule = "CC(C)(O)CC1(O)CCN(C(=O)c2ccc(NS(=O)(=O)c3cccc4cccnc34)cc2)CC1 [Compound 241]"
experimental_value = "101 to 1000 nM"

[[record]]
molecule = "O=C(c1ccc(NS(=O)(=O)c2cccc3cccnc23)cc1)N1CCC(O)(c2ccc(F)c(Br)n2)CC1 [Compound 133]"
experimental_value = "< 100 nM"

[[record]]
molecule = "CC(C)CC1(O)CCN(C(=O)c2ccc(NS(=O)(=O)c3cc(F)cc4sc(N)nc34)cc2)CC1 [Compound 145]"
experimental_value = "< 100 nM"

[[record]]
molecule = "CC(C)(F)CC1(O)CCN(C(=O)c2ccc(NS(=O)(=O)c3cccc4scnc34)cc2)CC1 [Compound 403]"
experimental_value = "< 100 nM"

[[record]]
molecule = "O=C(c1ccc(NS(=O)(=O)c2cccc3scnc23)cc1)N1CCC(O)(CC2CC2(F)F)CC1 (stereo not drawn) [Compound 432]"
experimental_value = "101 to 1000 nM"

[[record]]
molecule = "Cc1cccnc1C1(O)CCN(C(=O)c2ccc(NS(=O)(=O)c3cccc4cccnc34)cc2)CC1 [Compound 153]"
experimental_value = "< 100 nM"

[[record]]
molecule = "O=C(c1ccc(NS(=O)(=O)c2cccc3cccnc23)cc1)N1CCC(O)(c2ccccc2F)CC1 [Compound 165]"
experimental_value = "< 100 nM"

[[record]]
molecule = "CC(C)CC1(C=O)CCN(C(=O)c2ccc(NS(=O)(=O)c3cccc4cccnc34)cc2)CC1 [Compound 137]"
experimental_value = "< 100 nM"

[[record]]
molecule = "CS(=O)(=O)c1cccc(C2(O)CCN(C(=O)c3ccc(NS(=O)(=O)c4cccc5cccnc45)cc3)CC2)c1 [Compound 182]"
experimental_value = "< 100 nM"

[[record]]
molecule = "CC(C)(C)CC1(O)CCN(C(=O)c2ccc(NS(=O)(=O)c3cccc4nccnc34)cc2)CC1 [Compound 130]"
experimental_value = "< 100 nM"

[[record]]
molecule = "COc1cccc(CC2(O)CCN(C(=O)c3ccc(NS(=O)(=O)c4cccc5cccnc45)cc3)CC2)c1 [Compound 135]"
experimental_value = "< 100 nM"

[[record]]
molecule = "Cn1cc(C2(O)CCN(C(=O)c3ccc(NS(=O)(=O)c4cccc5scnc45)cc3)CC2)cn1 [Compound 411]"
experimental_value = "< 100 nM"

[[record]]
molecule = "O=C(c1ccc(NS(=O)(=O)c2cccc3nccnc23)cc1)N1CCC(O)(CCCC(F)F)CC1 [Compound 400]"
experimental_value = "< 100 nM"

[[record]]
molecule = "O=C(c1ccc(NS(=O)(=O)c2cccc3scnc23)cc1)N1CCC(O)(CCC=C(F)F)CC1 [Compound 393]"
experimental_value = "< 100 nM"

[[record]]
molecule = "O=C(c1ccc(NS(=O)(=O)c2cccc3cccnc23)cc1)N1CCC(O)(c2ccc(F)cc2)CC1 [Compound 194]"
experimental_value = "< 100 nM"

[[record]]
molecule = "CC(C)C1(O)CCN(C(=O)c2ccc(NS(=O)(=O)c3cccc4cccnc34)cc2)CC1 [Compound 214]"
experimental_value = "< 100 nM"

[[record]]
molecule = "O=C(c1ccc(NS(=O)(=O)c2cccc3cccnc23)cc1)N1CCC(O)(c2ccc(F)cc2Cl)CC1 [Compound 111]"
experimental_value = "< 100 nM"

[[record]]
molecule = "Nc1c(O)cccc1S(=O)(=O)Nc1ccc(C(=O)N2CCC(O)(c3ccccc3Cl)CC2)cc1 [Compound 382]"
experimental_value = "< 100 nM"


* * *

This section presents molecules with their documented AC50 values.
Molecular target: PKR WT (Homo sapiens, UniProt P30613)
Assay: PKR WT cell based AC50 assay
Conditions: wild type PKR
observable: AC50

[[record]]
test_smiles = "CC(C)CC1(O)CCN(C(=O)c2ccc(NS(=O)(=O)c3cccc4ncc(N)nc34)cc2)CC1"
experimental_value = "< 100 nM"

[[record]]
test_smiles = "CCCCC1(O)CCN(C(=O)c2ccc(NS(=O)(=O)c3cccc4cccnc34)cc2)CC1"
experimental_value = "< 100 nM"

[[record]]
test_smiles = "CC1(CC2(O)CCN(C(=O)c3ccc(NS(=O)(=O)c4cccc5cccnc45)cc3)CC2)CC1"
experimental_value = "< 100 nM"

[[record]]
test_smiles = "Cc1nc(F)ccc1C1(O)CCN(C(=O)c2ccc(NS(=O)(=O)c3ccc(F)c4cccnc34)cc2)CC1"
experimental_value = "101 to 1000 nM"


* * *

In this section, each of the compounds is paired with its reported AC50.
Molecular target: PKR WT (Homo sapiens, UniProt P30613)
Experiment: PKR WT enzymatic AC50 assay
Type: biochemical
Settings: wild type PKR
Procedure: • PKR or PKR mutant enzyme solution was diluted in assay buffer. • 2 μL of test compound was added into wells first, and then 180 μL reaction mix was added. • Reactions mixture with test compound was assembled except for ADP, and plates were stored for 60 minutes at room temperature. • 20 uL ADP was added to start reaction at room temperature and reaction progress was measured as changes in absorbance at 340 nm wavelength at room temperature. […]
observable: AC50

[[record]]
test_smiles = "COc1cc(NS(=O)(=O)c2cccc3cccnc23)ccc1C(=O)N1CCC(O)(c2ccccc2Cl)CC1"
experimental_system = "PKR WT (Homo sapiens, UniProt P30613)"
experimental_value = "< 100 nM"

[[record]]
test_smiles = "Cc1ncccc1C1(O)CCN(C(=O)c2ccc(NS(=O)(=O)c3cccc4cccnc34)cc2)CC1"
experimental_system = "PKR WT (Homo sapiens, UniProt P30613)"
experimental_value = "< 100 nM"

[[record]]
test_smiles = "CC(C)(C)CC1(O)CCN(C(=O)c2ccc(NS(=O)(=O)c3cccc4scnc34)cc2)CC1"
experimental_system = "PKR WT (Homo sapiens, UniProt P30613)"
experimental_value = "< 100 nM"

[[record]]
test_smiles = "O=C(c1ccc(NS(=O)(=O)c2cccc3ccccc23)cc1)N1CCC(O)(c2ccccc2Cl)CC1"
experimental_system = "PKR WT (Homo sapiens, UniProt P30613)"
experimental_value = "< 100 nM"

[[record]]
test_smiles = "O=C(c1ccc(NS(=O)(=O)c2ccc(Cl)cc2)cc1)N1CCC(O)(Cc2ccccc2)CC1"
experimental_system = "PKR WT (Homo sapiens, UniProt P30613)"
experimental_value = "1010 to 10000 nM"

[[record]]
test_smiles = "O=C(c1ccc(NS(=O)(=O)c2cc(F)cc3cccnc23)cc1)N1CCC(O)(c2ccccc2)CC1"
experimental_system = "PKR WT (Homo sapiens, UniProt P30613)"
experimental_value = "< 100 nM"

[[record]]
test_smiles = "O=C(c1ccc(NS(=O)(=O)c2cccc3cccnc23)cc1)N1CCC(CO)(c2ccccc2)CC1"
experimental_system = "PKR WT (Homo sapiens, UniProt P30613)"
experimental_value = "101 to 1000 nM"

